test: yeast display, Sf9 membrane polyspecificity reagent, FACS + sequencing; frameworks hold sequencing errors

| sequenceInput | polyreactivity (PSR sort gate) |
| --- | --- |
| QVQLVESVGGLVQAGGSLSLSCAASGRMLVRNAMGWYRQAAGKERELVAVIRWSGGRTSYADSVKGRFTISRDNAKNTVYLQMNSLKPEDTAVYYCNKGGSYPTSNYKSYWVGVDYCGQGTQVTVSS | low polyreactivity |
| QVQLVESGGGLVQAGGSLRLSCAASGFTINFYSLGWYRQAPGKERELVAAITASGGGSTYYADSVKGRFTISRDNAKNTVYLQMNSLKQEDTAVYYCNADFTGSFYTYEYWGQGTQVTVAS | low polyreactivity |
| QVQLVESGGGLVQAGGSLRLSCAASGSTFEDYAMGGYRQAPGKERELVAAISHIGGSTYYADSVKGRFTISRDNAKNTVYLQMNSLKPEDTAVYYCAKGGFSSKFDFWGQGTQVTVSS | low polyreactivity |
| QVQLVESGGGLVQAGGSLRLSCAASGSIFVEYAMGWYRQAPGKERELVAAISYSGSSTNYADSVKGRFTISRDNAKNTVYLQMNSLKPEDTAVYYCNADGTGGEQKPYYELDYWGQGTQVTVSS | low polyreactivity |
| QVQLVESGGGLVQAGGSLRLSCAASGSTFYANGMGRYRQAPGKERELDAAISWSGGSTYYADSVKGRFTISRDNAKNTVYLQMNSLKPEDTAVYYCAAAYRSFINGRWYDYWGQGTQVTVSS | low polyreactivity |
| QVQLVESGGGLVQAGGSLRLSCAASGRNFYGNAMGWYRQAPGKERELVAAISSGTSTNYADSVKGRFTISRDNAKNTVYLQMNSLKPEDTAVYYCAAGSYSRYLYSLYFDFDYWGQGTQVTVSS | low polyreactivity |
| QVQLVESGGGLVQAGGSLRLSCAASGFTFPYNAMGWYRPAPGTARELVAGISYGGGRTYYADSVKGRFTFSRDNAKNTVYLQMNSLKPEDTAVYYCARRPGAWKYVYTGDYWGQGTQVTVSS | high polyreactivity |
| QVQLVESGGGLVQAGGSLRLSCAASGSIFWRYTMGWYRQAPGKERELVAAISTRGGSTYYADSVKGRFTISRDNAKNTVYLQMNSLKPEDTAVYYCNAVEGSRLPYDYWGQGTQVTVSS | low polyreactivity |
| QVQLVESGGGLVQAGGSLRLSCAASGLILSSNAMGWYRQAPGKERELVATINRSGASTYYADSVKGRFTISRDNAKNTVYLQMNSLKPEDTAVYYCNTATSRAYRYDYWGQGSQVTVSS | low polyreactivity |
| QVQLVESGGGLVQAGGSLRLSCAASGGTFDWNTMGWYRQAPGKERELVASITSGGRTNYADSVKGRFTISRDNAKNTVYLQMNSLKPEDTAVYYCAIYRRSAYPWQTWVGQKFDYWGQGTQVTVSS | low polyreactivity |
| QVQLVESGGGLVQAGGSLRLSCAASGIFAWNAMGWYRQAPGKERELVAAISWSGGSTYADSVKGRFTISRDNAKNTVYLQMNSLKPEDTAVYYCAKVSSLTSKSDYSGQGTQVTVSS | low polyreactivity |
| QVQLVESGGGLVQAGGSLRLSCAASGITFHRYAMGWYRQAPGKERELVAAISGSGGNTYYADSVKGRFTISRDNAKNTVYLQMNILKPEDTAVYYCAAYPSWYVYPKYYYWGQGTQVTVSS | high polyreactivity |
| QVQLVESGGGLVQAGGSLRLSCAASGRIFAYNTMGWYRQAPGKERELVAVITSGGSTNYADSVKGRFTISRDNAKNTVYLQMNSLKPEDTAVDYCNAPYVARKRFSYNYWGQGTQVTVSS | high polyreactivity |
| QVQLVESGGGLVQAGGSLRLSCAASGRIFLYYAMGWYRQAPGKERELVAAITSSGGDTYYADSVKGRFTISRDNANNTVYLQMYSLKPEDTAVYYCAAYSWWNEYDYWGQGTQVTVSS | high polyreactivity |
| QVQLVESGGGLVQAGGSLRLSCAASGSIFGGYGMGWYSQAPGKERELVAAITSGSSTYYADSVKGRFTISRDNAKNTVYLLMNSLKPEDTAVYYCAKVSYYPWRYDYWGQGTQVTVTS | low polyreactivity |
| QVKLQESGGGLVQAGGSLRLSCAASGNISVTGFMGLYRQAPGKERELVASIGIGGTTYYADSVKGRFSISRDNAKNTVYLQMNSLKPEDTAVYYCAGIYLYYAYSYWGQGTQVTVSS | low polyreactivity |
| QVQHVESGGGLVQAGGSLRLSCAASGRIFGKNDMGWYRQAPGNERELVAAITTSGGSTYYADSVKGRFTISRYNAKNTVYLQMNSLKPEDTAVYYCNAAFQNKGYIRKYKYDYWGQGTQVTVSS | low polyreactivity |
| QVQLVESGGGLVQAGGSLRLSCAASGSIFSGNEMAWYRQAPGKERELVAAISSNGGRTYYADSVKGRFTISRDNEKNTVYLQMNSLKPEDTAVDYCAADSGKRRYGYYYWGQATQVTVSS | high polyreactivity |
| QVQLVESGGGLVQAGGSLRLSCAASGRTFPLYAMGWYIQAPGKERELVAAITRSGGSTYYADSVKGRFTISRDNAKNTVYLQMNSLKPEDTAVYYCNARKSKDRPTGYAFNYWGQGTQVTVSS | high polyreactivity |
| QVQLVESGGGIVQAGGSLRLSCDASGSIFNYYTMGWYRQEPGKERELVAAISYRGGRTYYADSVKGRFTISRDNAKNTVYLQMNSLKPEDTAVYYCAAGWLLYVFFPREYYYWGQGTQVTVSS | high polyreactivity |
| QVQLVESGGGLVQAGGSLRLSCAASGITFYDNVMGWYRQAAGKERELVAAITSGGSTNYADSVKGRFTISRDNAKNTVYLQMNSLKPEDTAVYYCAAQPRVDYEFPYRYGYWGQGTQVTVSS | low polyreactivity |

---

assay: yeast display, Sf9 membrane polyspecificity reagent, FACS + sequencing; frameworks hold sequencing errors

| sequenceInput | polyreactivity (PSR sort gate) |
| --- | --- |
| QVQLQESGDGLVQAVGSLRLSCAASGYISGKYYMGWYRKAPGNERGLLDGIDACGSRTNYADCVKGRFTISRDNAHNTVYLQMNSLKPEDTAVYYCAARPDGDRLFSYWGQGTQVPVSS | low polyreactivity |
| QVQLVESGGGLVQAGGSLRLSCAASGFIFSYYAMGWYRQAPGKERELVAAITWDGGSTYYADSVKGRFTISRDYANNTVYLLLNSLKPEDTAVYYCNAYYYYRRPLEGGYWGQGNQVTVSS | low polyreactivity |
| QVQLVESGGGLVQAGVSLRLSCAASGFTFSRNAMGWYRQAPGKERELVAAISRSGGSTYYAYSVKGRFTISRDNAKNTVYLQINSLKQEDTAVYYCATSCTPNYFVTSDYWGQGTQVTVSS | high polyreactivity |
| QVQLVESGGGLVQAGGSLRLSCAASGSIFTTYAMGWYRQAPGKERELVAAISSTSGSTYYADSVKGRFTISRDNAKNTVYLQMNSLKPEDTAVYYCAARGGYWGQGTQVTVSS | low polyreactivity |
| QDQLVESGGGLVQAGGSLRLSCAASGSTFTKYAMGWYRQAPGKERELVAAIISYRVGSTYYADSVKGRFTISRDNAKINVYLVMKSLIPEDTAAFYCAAVWKPPGFSTMYYWGQGTEVTVSS | high polyreactivity |
| QVQLVESGGGLVQAGGSLRLSCAASGITFGCNAMGWYRQAPGKEREFVAAITFSDGSTRYADSVKGRFTISRDNAKNTVYLQMNSLKPEDTAVYYCAADTWSDKYDYWGQGTQVTVSS | low polyreactivity |
| QVQLVESGGGLVQAGGSLRLSCAASGGIFAPYAMGWYRQAPGKERELVAAISSSDGSTYYADSVKGSFTISRDNAKNTVYLQMNSLKPEDTAVYYCAADYREDYGYWGQGTQVTVSS | low polyreactivity |
| QVQLVESGGGLVQAGGSLSLSCAASGSIFGSYAMGWYRKAPGKERELVAAITGSGVSTYYADSVKGRFTISRDNAKYTVYLQMNSLKPEDTAVYYCAAKRYYARSAYGSYFIVGYWGQGTQVTVSS | high polyreactivity |
| HVQLVESGGGLVQAGGSLRLSCAASGSTFGYNARGWYRQAPGKERELVAVITDSGGSTKYADSVKGRFTISRDNAKKTVYLQMNSLKPEDTAVYYCAKRSSQTRRAYDYWGQGTQVTVSS | low polyreactivity |
| QFQLVESGGGLVQAGGSLRLSCAASARTFYRYAMGWYRQAPGKERELVASINRGGSTIYADSVKGRFSISRDNAKNTVYLHMNSLKPEDTAVFYCACYCYCYWGQGTQVTVSS | low polyreactivity |
| QVQLVESGGGLVQAGGSLRLSCAASGSIFGYNTMGWYRKAPGKERELVAAISYRGGSTSADSVKGRFSISRDNAKNTVYLQMNSRKPEDTAVYSCATRSIVGYRYSGYDYWGQATQVTVSS | high polyreactivity |

Ref: the nanobody polyreactivity screen of Harvey et al. (2022)
